Attribution: paper PMC9065877

assay.summary: Food effect study (FES), 150 mg single dose fed vs fasted, pharmacokinetics in healthy subjects, plasma
Type: in vivo, human
measurement.setup: human, plasma, po, 150 mg, FES 150 mg single oral dose, fed (high-fat breakfast); geometric mean (CV%)
value.type: Cmax (ng/mL)
Give your result in ng/mL as a bare value.

Exercise: // lookup Cmax for Brc1cccc(-c2cc(-c3ccc4c(c3)OCO4)n[nH]2)c1 [anle138b]
Key: 196

###

assay.summary: Food effect study (FES), 150 mg single dose fed vs fasted, pharmacokinetics in healthy subjects, plasma
Type: in vivo, human
measurement.setup: human, plasma, oral; FES 150 mg; 90% CI: 61%, 88%; read-out: Dose bioavailable in the fed state compared to the fasted state
value.type: bioavailability

Exercise: Entry under review: Brc1cccc(-c2cc(-c3ccc4c(c3)OCO4)n[nH]2)c1 [anle138b] . Reported bioavailability?
Key: ~74%

###

assay.summary: Multiple ascending dose (MAD, QD 7 days) oral pharmacokinetics of anle138b in healthy subjects, plasma
Assay type: in vivo, human
measurement.setup: human, plasma, oral, 300 mg, MAD Cohort C 300 mg QD, dosing day 7, fasted; geometric mean (CV%); read-out: AUC(0-24)
Procedure: This was a single-centre, double-blind, randomised, placebo-controlled single ascending dose (SAD) and multiple ascending dose (MAD) study of anle138b in doses of up to 300 mg per day in healthy subjects. […] The study was exploratory and no formal sample size calculation was made. […] Populations and analysis sets were determined for safety and PK data after database lock using the criteria defined in the reporting and analysis plan. […]
value.type: AUC(0-t) (ng·h/mL)
Write down the numeric answer in ng·h/mL and omit the unit.

Exercise: What value of measured AUC(0-t) is listed for Brc1cccc(-c2cc(-c3ccc4c(c3)OCO4)n[nH]2)c1 [anle138b] ?
Key: 633

###

assay.summary: Single ascending dose (SAD) oral pharmacokinetics of anle138b in healthy subjects, plasma
Assay type: in vivo, human
measurement.setup: human, plasma; SAD Cohort D 300 mg single oral dose, fasted; geometric mean (CV%); read-out: AUC(0-24)
value.type: AUC(0-t)

Exercise: Returns the measured AUC(0-t) for the input compound. Input: Brc1cccc(-c2cc(-c3ccc4c(c3)OCO4)n[nH]2)c1 [anle138b]
Key: 1.65 µg·h/mL
